PROTOCOL SUMMARY: growth inhibition of wild-type GFP E. coli, H38-humanized RFP comparator, dose response, H38 mutant RFP vs wild-type GFP, cherry-pick (AID 977630);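 also: wild-type GFP strain mixed equally with humanized-ribosome H38 mutant expressing RFP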
TEST CONTEXT: mixed culture, 24 h; series mostly up to 50 µM
The whole screen tested about 1,600 compounds, of which fewer than 10 were called active. Not shown: some 48% with an inconclusive outcome. The list is a sample of the results. Results with a measured potency or affinity are listed apart.
READOUT TYPE: outcome

The reported value for CC1Cc2cc(S(=O)(=O)N3CCN(c4cccc(Cl)c4)CC3)ccc2N1C(=O)C1CC1 (stereo unspecified) in terms of outcome is inactive

The compound listed as "Cc1cc(C)cc(NC(=O)COC(=O)CC2CCCC2)c1" has a reported outcome of inactive

Recorded result, "Cc1cccc(N2Cc3ccc(Br)cc3C2)c1" , outcome: inactive

Lab book: outcome of "Cc1cc2nc(SCC(=O)O)nc(C)c2cc1C" noted as inactive

---
Reported outcome ( "CN(Cc1ccc([N+](=O)[O-])cc1)c1ccccc1" ) = inactive

Value of outcome reported for the compound Fc1ccccc1C1CCN(Cc2nc(CC3CC3)no2)C1 (stereo unspecified) is inactive

###

PROTOCOL SUMMARY: growth inhibition of wild-type GFP E. coli, H38-humanized RFP comparator, dose response, H38 mutant RFP vs wild-type GFP, cherry-pick (AID 977630);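 also: wild-type GFP strain mixed equally with humanized-ribosome H38 mutant expressing RFP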
TEST CONTEXT: mixed culture, 24 h; series mostly up to 50 µM
Among all 1,600 compounds or so, fewer than 10 were called active. Another 48% or so got no clear call; they are omitted. A selection follows. Measured potencies and affinities stand elsewhere.
READOUT TYPE: outcome

Use these answered entries as a reference point.
Record "COC(=O)c1nc(-c2ccc(C)cc2)[nH]c1C(C)(C)C" , field outcome: inactive

Short answer for COc1ccc(OC2C(=O)N(Cc3ccc4c(c3)OCO4)C2c2sccc2C)cc1 (stereo not drawn) : outcome was inactive

Quick note, outcome for "O=C(O)CC1(CC(=O)Nc2ccc3sccc3c2)CCCCC1" landed at inactive

Value of outcome reported for the molecule "O=C(OCC(=O)N1CCOCC1)c1cccc(S(=O)(=O)N2CCCc3ccccc32)c1" is inactive

// field: outcome; key: Cc1ccc(S(=O)(=O)N2CCCCC2C(=O)N2CCN(c3ccccc3F)CC2)cc1 (stereo not drawn) ; value = inactive

Next:
# outcome of "CCCCOc1ccc(-c2nnn(CCC(=O)N3CCOCC3)n2)cc1" = inactive

// "Cc1ccc(NCC(=O)c2ccc(C)cc2)cc1" : outcome value = inactive

Just so you know, measured outcome for "CS(=O)(=O)N(CC(=O)N1CCc2ccccc2C1)c1cccc(Br)c1" came out at inactive

Form field outcome, entry "CCc1cccc(CC)c1NC(=O)Cn1c(-c2ccc(F)cc2)noc1=O" : inactive

The measured outcome associated with O=c1c2ccccc2nc(SCc2ccccc2)n1CC1CCCO1 (stereo not drawn) reads inactive

Input "CCCOC(=O)c1ccc(NC(=O)c2nc3nc(C)cc(C)n3n2)cc1" . Output outcome: inactive

The value of outcome measured for the molecule "O=C(Nc1ccn(Cc2ccc(Cl)cc2)n1)c1ccccc1" turned out to be inactive

outcome for "Cn1c(=O)c2c(-c3ccccc3)n(-c3cc([N+](=O)[O-])ccc3N)cc2n(C)c1=O" is inactive
